Target: F876L mutant Androgen Receptor (AR-F876L) (Homo sapiens, UniProt P10275, F877L)
Construct: expressed in transfected cells; host or cells: LNCaP (LNCaP F876L)
Sequence (P10275 1-920 F877L): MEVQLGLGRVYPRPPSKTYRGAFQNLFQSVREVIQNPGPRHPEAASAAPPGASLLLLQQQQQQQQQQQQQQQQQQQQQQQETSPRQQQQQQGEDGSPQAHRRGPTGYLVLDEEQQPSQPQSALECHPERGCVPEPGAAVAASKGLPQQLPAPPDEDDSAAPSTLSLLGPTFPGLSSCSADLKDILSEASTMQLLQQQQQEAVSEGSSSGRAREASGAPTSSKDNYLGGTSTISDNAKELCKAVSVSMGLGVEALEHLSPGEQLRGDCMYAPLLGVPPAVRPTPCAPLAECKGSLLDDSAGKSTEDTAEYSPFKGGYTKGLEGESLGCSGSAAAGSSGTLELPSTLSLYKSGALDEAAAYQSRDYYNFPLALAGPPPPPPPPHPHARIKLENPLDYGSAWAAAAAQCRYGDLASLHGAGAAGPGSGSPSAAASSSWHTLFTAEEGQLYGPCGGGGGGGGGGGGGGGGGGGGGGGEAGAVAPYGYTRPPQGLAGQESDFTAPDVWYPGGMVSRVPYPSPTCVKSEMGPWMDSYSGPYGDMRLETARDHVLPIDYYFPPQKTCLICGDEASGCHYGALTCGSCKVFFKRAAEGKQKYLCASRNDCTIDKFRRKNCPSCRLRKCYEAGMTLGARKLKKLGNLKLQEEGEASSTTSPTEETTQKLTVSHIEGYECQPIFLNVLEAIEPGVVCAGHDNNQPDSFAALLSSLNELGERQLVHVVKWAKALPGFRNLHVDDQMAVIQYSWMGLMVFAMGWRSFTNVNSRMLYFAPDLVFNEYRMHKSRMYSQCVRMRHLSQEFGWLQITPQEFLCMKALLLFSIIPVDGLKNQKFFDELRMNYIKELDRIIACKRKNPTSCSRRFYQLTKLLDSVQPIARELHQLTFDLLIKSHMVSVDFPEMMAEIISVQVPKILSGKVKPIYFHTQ
Test: LNCaP-AR-F876L ANT reporter assay (ARE firefly luciferase, antagonist mode)
Format: cell-based
Settings: read-out: LNCaP-AR-F876L ANT pIC50 (converted)
Please note: IC50 exactly at 300 nM is Not satisfied. Only values below 300 nM get Satisfied.

The examples below pair each entry with its known result.
1) CC(C)NC(=O)c1ccc(N2C(=S)N(c3cnc(C#N)c(C(F)(F)F)c3)C(=O)C23CCC3)cc1F [Cpd 23] ... Not satisfied
2) CNC(=O)c1ccc(N2C(=S)N(c3cnc(C#N)c(C)c3)C(=O)C23CCC3)cc1F [Cpd 16] ... Satisfied
3) N#Cc1ncc(N2C(=O)C3(CCC3)N(c3ccc(C(=O)N4CCCC4)c(F)c3)C2=S)cc1C(F)(F)F [Cpd 52] ... Not satisfied
4) Cc1cc(N2C(=O)C3(CCC3)N(c3ccc(C(=O)Nc4ccc(Cl)cc4)c(F)c3)C2=S)cnc1C#N [Cpd 74] ... Not satisfied
5) N#Cc1ncc(N2C(=O)C3(CCC3)N(c3ccc(C(=O)NCc4cccc(Cl)c4)c(F)c3)C2=S)cc1C(F)(F)F [Cpd 95] ... Not satisfied
6) N#Cc1ncc(N2C(=O)C3(CCC3)N(c3ccc(Oc4ccccc4)cc3)C2=S)cc1C(F)(F)F [Cpd 99] ... Not satisfied
7) Cc1ccc(N2C(=S)N(c3cnc(C#N)c(C(F)(F)F)c3)C(=O)C2(C)C)cc1 [Cpd 110] ... Satisfied
8) C#CCNC(=O)c1ccc(N2C(=S)N(c3cnc(C#N)c(C(F)(F)F)c3)C(=O)C23CCC3)cc1F [Cpd 111] ... Not satisfied
9) N#Cc1ncc(N2C(=O)C3(CCC3)N(c3ccc4ccccc4c3)C2=S)cc1C(F)(F)F [Cpd 18] ... Satisfied
10) CC(C)CCNC(=O)c1ccc(N2C(=S)N(c3cnc(C#N)c(C(F)(F)F)c3)C(=O)C23CCC3)cc1F [Cpd 27] ... Not satisfied

Criterion: IC50 strictly below 300 nM. Is it met by COc1ccc(N2C(=S)N(c3cnc(C#N)c(C)c3)C(=O)C23CCC3)cc1 [Cpd 69] ? Satisfied

Threshold test, IC50 < 300 nM: N#Cc1ncc(N2C(=O)C3(CCC3)N(c3ccc(C(=O)NCCCO)c(F)c3)C2=S)cc1C(F)(F)F [Cpd 40] Satisfied

Quick check: IC50 of Cc1ccc(-c2ccc(N3C(=S)N(c4cnc(C#N)c(C)c4)C(=O)C34CCC4)cc2)o1 [Cpd 50] under 300 nM? Satisfied

Threshold test, IC50 < 300 nM: Cc1cc(N2C(=O)C3(CCC3)N(c3ccc(OCCc4ccccn4)c(F)c3)C2=S)cnc1C#N [Cpd 32] Satisfied

Could you please tell me whether IC50 recorded for N#Cc1ncc(N2C(=O)C3(CCC3)N(c3ccc(C(=O)NCc4cccnc4)c(F)c3)C2=S)cc1C(F)(F)F [Cpd 67] is less than 300 nM? Not satisfied

###

Measured IC50, listed per entry.
Molecular target: F876L mutant Androgen Receptor (AR-F876L) (Homo sapiens, UniProt P10275, F877L)
Construct: expressed in transfected cells; host or cells: LNCaP (LNCaP F876L)
Sequence (P10275 1-920 F877L): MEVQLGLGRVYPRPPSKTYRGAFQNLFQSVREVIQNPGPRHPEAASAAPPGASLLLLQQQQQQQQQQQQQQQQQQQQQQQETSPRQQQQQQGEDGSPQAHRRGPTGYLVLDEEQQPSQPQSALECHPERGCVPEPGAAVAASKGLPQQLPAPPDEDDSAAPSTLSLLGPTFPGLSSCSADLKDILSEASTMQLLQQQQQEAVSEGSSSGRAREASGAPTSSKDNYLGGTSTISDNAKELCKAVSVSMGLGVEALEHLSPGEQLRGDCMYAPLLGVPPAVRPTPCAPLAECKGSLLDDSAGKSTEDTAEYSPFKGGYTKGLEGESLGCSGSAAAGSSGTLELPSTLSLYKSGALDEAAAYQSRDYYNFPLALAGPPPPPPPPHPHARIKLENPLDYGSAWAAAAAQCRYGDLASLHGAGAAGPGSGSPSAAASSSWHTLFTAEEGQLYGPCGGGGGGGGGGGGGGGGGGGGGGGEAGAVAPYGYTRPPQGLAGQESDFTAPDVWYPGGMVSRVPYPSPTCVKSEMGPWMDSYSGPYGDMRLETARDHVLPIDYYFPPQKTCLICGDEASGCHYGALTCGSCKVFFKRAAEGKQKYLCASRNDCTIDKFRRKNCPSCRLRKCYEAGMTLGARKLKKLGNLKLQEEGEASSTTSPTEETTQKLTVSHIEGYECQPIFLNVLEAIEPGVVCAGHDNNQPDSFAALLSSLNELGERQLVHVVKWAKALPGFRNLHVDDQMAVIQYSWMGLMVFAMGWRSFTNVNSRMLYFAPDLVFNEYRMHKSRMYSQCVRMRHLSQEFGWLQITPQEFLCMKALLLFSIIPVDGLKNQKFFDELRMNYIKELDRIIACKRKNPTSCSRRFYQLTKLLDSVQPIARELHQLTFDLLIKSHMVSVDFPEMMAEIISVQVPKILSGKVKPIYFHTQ
Assay: LNCaP-AR-F876L ANT reporter assay (ARE firefly luciferase, antagonist mode)
Assay type: cell-based
Settings: read-out: LNCaP-AR-F876L ANT pIC50 (converted)
A number alone suffices; assume nM.

// solved cases for IC50 follow
1) Cc1cc(N2C(=O)C3(CCC3)N(c3ccc(OCCN4CCN(C)CC4)cc3)C2=S)cnc1C#N ... 490
2) Cc1cncc(-c2ccc(N3C(=S)N(c4cnc(C#N)c(C)c4)C(=O)C34CCC4)cc2)c1 ... 355
3) CN1CCC(Oc2ccc(N3C(=S)N(c4cnc(C#N)c(C(F)(F)F)c4)C(=O)C34CCC4)cc2F)CC1 ... 204
4) N#Cc1ncc(N2C(=O)C3(CCC3)N(c3ccc(OC4CCNCC4)cc3)C2=S)cc1C(F)(F)F ... 145
5) Cc1ccc(N2C(=S)N(c3cnc(C#N)c(C)c3)C(=O)C23CCC3)cc1 ... 100

Looking up N#Cc1ncc(N2C(=O)C3(CCC3)N(c3ccc(C(=O)NCc4ccc(Cl)cc4)c(F)c3)C2=S)cc1C(F)(F)F , I see its IC50 listed as 646

IC50 reading for Cc1cc(N2C(=O)C3(CCC3)N(c3ccc(-c4ccco4)cc3)C2=S)cnc1C#N : 209

// sample CN1CCN(Cc2ccc(N3C(=S)N(c4cnc(C#N)c(C(F)(F)F)c4)C(=O)C34CCC4)cc2)CC1 , its IC50 was 162

###

Reported values of log10(IC50) for individual entries
Target: wild-type Androgen Receptor (AR-wt) (Homo sapiens, UniProt P10275)
Construct: expressed in transfected cells; host or cells: LNCaP (LNCaP AR (cs))
Experiment: LNCaP-AR-wt ANT reporter assay (ARE firefly luciferase, antagonist mode)
Assay type: cell-based
Settings: antagonist mode, 400 pM R-1881 challenge; −Log10(IC50 [Molar]); read-out: LNCaP-AR-wt ANT pIC50 (converted)
Each number you see is log10 of IC50, and the unit inside the log is µM.

1) N#Cc1ncc(N2C(=O)C3(CCC3)N(c3cccc(CO)c3)C2=S)cc1C(F)(F)F ... -0.15
2) Cc1cc(N2C(=O)C3(CCC3)N(c3ccc(OC4CCN(CCO)CC4)cc3)C2=S)cnc1C#N ... -0.03
3) N#Cc1ncc(N2C(=O)C3(CCC3)N(c3cccc(F)c3F)C2=S)cc1C(F)(F)F ... -0.21
4) N#Cc1ncc(N2C(=O)C3(CCC3)N(c3ccc(O)cc3F)C2=S)cc1C(F)(F)F ... -0.61

Entry COCCNC(=O)c1ccc(N2C(=S)N(c3cnc(C#N)c(C(F)(F)F)c3)C(=O)C23CCC3)cc1F ; assay system wild-type Androgen Receptor (AR-wt) (Homo sapiens, UniProt P10275); log10(IC50) recorded at -0.05

Measured on wild-type Androgen Receptor (AR-wt) (Homo sapiens, UniProt P10275), Cc1ccc(N2C(=S)N(c3cnc(C#N)c(C(F)(F)F)c3)C(=O)C2(C)C)cc1 has a documented log10(IC50) of -0.71

# lookup: N#Cc1ncc(N2C(=O)C3(CCC3)N(c3ccc4ccncc4c3)C2=S)cc1C(F)(F)F on wild-type Androgen Receptor (AR-wt) (Homo sapiens, UniProt P10275), log10(IC50) = -0.38

Item N#Cc1ncc(N2C(=O)C3(CCC3)N(c3ccc(C(=O)NCc4cccnc4)c(F)c3)C2=S)cc1C(F)(F)F was tested on wild-type Androgen Receptor (AR-wt) (Homo sapiens, UniProt P10275); the reported log10(IC50) is 0.10

log10(IC50) on wild-type Androgen Receptor (AR-wt) (Homo sapiens, UniProt P10275) for CNC(=O)c1ccc(N2C(=S)N(c3cnc(C#N)c(C(F)F)c3)C(=O)C23CCC3)cc1F is 0.26

# lookup: N#Cc1ncc(N2C(=O)C3(CCC3)N(c3cccnc3)C2=S)cc1C(F)(F)F on wild-type Androgen Receptor (AR-wt) (Homo sapiens, UniProt P10275), log10(IC50) = -0.06

meta.source: patent US20180008587A1
